# credit: ChEMBL document CHEMBL2434928

- Tested on: Bacillus cereus
- testSummary: Antimicrobial activity against Bacillus cereus ATCC 14579 after 24 hrs by broth microdilution method
- Format: functional
- experimentalContext: ATCC 14579, 24 h
Please respond with Condition met when measured MIC is strictly beneath 20 µM, and with Condition not met in all other cases.

Consider the following illustrative entries.
Cc1ccc(NC(=O)c2cc(Cl)ccc2OC(=O)[C@H](C)NC(=O)OCc2ccccc2)cc1    Condition met
Cc1ccc(NC(=O)[C@@H](NC(=O)c2cc(Cl)ccc2O)C(C)C)cc1    Condition not met
O=C(Nc1ccc([N+](=O)[O-])cc1)c1cc(Cl)ccc1O    Condition met

Quick check: does O=C(Nc1ccccc1)c1cc(Cl)ccc1O have MIC under 20 µM? Condition not met

Quick check: does Cc1ccc(NC(=O)c2cc(Cl)ccc2O)cc1 have MIC under 20 µM? Condition not met

Quick check: does CC(C)[C@H](NC(=O)c1ccc(Cl)cc1O)C(=O)Nc1ccc(Cl)c(Cl)c1 have MIC under 20 µM? Condition met

Quick check: does Cc1ccc(NC(=O)c2cc(Cl)ccc2OC(=O)[C@@H](NC(=O)OCc2ccccc2)C(C)C)cc1 have MIC under 20 µM? Condition not met

Quick check: does O=C(Nc1ccc(Cl)c(Cl)c1)c1cc(Cl)ccc1O have MIC under 20 µM? Condition met

Quick check: does O=C(N[C@@H](Cc1ccccc1)C(=O)Oc1ccc(Cl)cc1C(=O)Nc1ccc(Cl)c(Cl)c1)OCc1ccccc1 have MIC under 20 µM? Condition met

Quick check: does Cc1ccc(NC(=O)[C@H](C)NC(=O)c2cc(Cl)ccc2O)cc1 have MIC under 20 µM? Condition not met
